# IC50 per entry
target: ACC1 from rat liver (Rattus norvegicus); construct: The livers (for ACC1 preparation) or skeletal muscle tissue (for ACC2 preparation) are removed; from tissue; host or cells: liver of male CD rats (fasted, then fed a high sucrose diet); experiment: Direct inhibition of ACC1 activity (14C-bicarbonate incorporation); type: biochemical; settings: ACC1 from rat liver
Counter-ions that a name gives are not always drawn.
Dear colleague, please return just the value in µM, with no unit written.

# example entries with known answers
| molecule | IC50 / µM |
| --- | --- |
| Cc1cc(C(=O)N2CCC3(CC2)CC(=O)c2cc(Cl)c(F)cc2O3)cc2cn[nH]c12 [Ex. A21] | 0.0966 |
| COc1cccc2c1C(=O)CC1(CCN(C(=O)c3ccc4[nH]cc(Cl)c4c3)CC1)O2 [Ex. L10] | 0.101 |
| Cc1cc2c(cc1C)C(=O)CC1(CCN(C(=O)c3ccc4cn[nH]c4c3)CC1)O2 [Ex. G1, trifluoroacetic acid salt] | 0.271 |
| Cc1cc2c(cc1Cl)C(=O)CC1(CCN(C(=O)c3cccc4cn[nH]c34)CC1)O2 [Ex. H5] | 0.321 |
| CCc1cc(C(=O)N2CCC3(CC2)CC(=O)c2cc(Cl)c(C)cc2O3)cc2cn[nH]c12 [Ex. C4] | 0.0306 |
| Cc1cc2c(c(C)c1Cl)C(=O)CC1(CCN(C(=O)c3cc(C)c4[nH]ncc4c3)CC1)O2 [Ex. A18] | 0.072 |
| COc1cccc2c1C(=O)CC1(CCN(C(=O)c3ccc4[nH]c5c(c4c3)CCNC5=O)CC1)O2 [Ex. K2] | 0.0288 |
| CC(C)c1ccc2c(c1)C(=O)CC1(CCN(C(=O)c3cccc4cn[nH]c34)CC1)O2 [Ex. H10] | 0.693 |

Request: What value of IC50 has been reported for the following molecule? Cc1cc2c(cc1Cl)C(=O)CC1(CCN(C(=O)c3ccc4c(C)n[nH]c4c3)CC1)O2 [Ex. F3]
Result: 0.107

Request: Same read-out for COc1ccc2c(c1)C(=O)CC1(CCN(C(=O)c3cc(C)c4[nH]ncc4c3)CC1)O2 [Ex. A7, trifluoroacetic acid salt] ?
Result: 0.0325

Request: Same read-out for Cc1cc2c(cc1C)C(=O)CC1(CCN(C(=O)c3ccc4[nH]c(C(F)(F)F)nc4c3)CC1)O2 [Ex. L25, trifluoroacetic acid salt] ?
Result: 0.613

Request: Same read-out for COc1ccc2c(c1)C(=O)CC1(CCN(C(=O)c3cc(C)c4[nH]ncc4c3)CC1)O2 [Ex. A16] ?
Result: 0.0551

Request: Same read-out for CCc1nc2cc(C(=O)N3CCC4(CC3)CC(=O)c3ccccc3O4)ccc2n1-c1cccc(OC)c1 [Ex. L30] ?
Result: 0.39

Request: Same read-out for CCOc1ccc2c(c1)C(=O)CC1(CCN(C(=O)c3cccc(-c4cc[nH]n4)c3)CC1)O2 [Ex. N2] ?
Result: 0.0432

----------
target: ACC1 from rat liver (Rattus norvegicus, UniProt P11497); construct: The livers (for ACC1 preparation) or skeletal muscle tissue (for ACC2 preparation) are removed; from tissue; host or cells: liver of male CD rats (fasted, then fed a high sucrose diet); assay: Direct inhibition of ACC1 activity (14C-bicarbonate incorporation); assay type: biochemical; conditions: ACC1 from rat liver
Structures can show the parent of a compound that is named as a salt.
# IC50 per entry
Dear colleague, please return just the value in nM, with no unit written.

Request: What value of IC50 has been reported for the following compound? COc1cccc2c1C(=O)CC1(CCN(C(=O)c3cccc4cn[nH]c34)CC1)O2 [Ex. H20]
Result: 2430

Request: Same read-out for "Cc1cc(C(=O)N2CCC3(CC2)CC(=O)c2ccc(Cl)cc2O3)cc2cn[nH]c12" ?
Result: 70.5

Request: Same read-out for Cc1cc2c(cc1C)C(=O)CC1(CCN(C(=O)c3cccc4[nH]cnc34)CC1)O2 [Ex. L17, trifluoroacetic acid salt] ?
Result: 885

Request: Same read-out for "COc1ccc2c(c1)OC1(CCN(C(=O)c3cc(Cl)c4[nH]ncc4c3)CC1)CC2=O" ?
Result: 166

----------
# pIC50 per entry
molecular target: ACC1 from rat liver (Rattus norvegicus); construct: The livers (for ACC1 preparation) or skeletal muscle tissue (for ACC2 preparation) are removed; from tissue; host or cells: liver of male CD rats (fasted, then fed a high sucrose diet); assay: Direct inhibition of ACC1 activity (14C-bicarbonate incorporation); format: biochemical; conditions: Table of Examples O1-O4
In plain terms, pIC50 is the concentration in mol/L turned into minus its base-10 logarithm.

# example entries with known answers
| smiles data | pIC50 |
| --- | --- |
| COc1cc(Cl)c2c(c1)OC1(CCN(C(=O)c3cccc(-c4ccn[nH]4)c3)CC1)CC2=O | 7.26 |
| COc1cc(Cl)cc2c1C(=O)CC1(CCN(C(=O)c3cccc(-c4ccn[nH]4)c3)CC1)O2 | 6.34 |
| O=C1CC2(CCN(C(=O)c3cccc(-c4ccn[nH]4)c3)CC2)Oc2ccccc21 | 6.04 |

Proceeding to the next compound to report its pIC50.
Request: What value of pIC50 has been reported for the following compound? "COc1cc(C)c2c(c1)OC1(CCN(C(=O)c3cccc(-c4ccn[nH]4)c3)CC1)CC2=O"
Result: 6.33

----------
# pIC50 per entry
target: ACC1 from rat liver (Rattus norvegicus); construct: The livers (for ACC1 preparation) or skeletal muscle tissue (for ACC2 preparation) are removed; from tissue; host or cells: liver of male CD rats (fasted, then fed a high sucrose diet); assay: Direct inhibition of ACC1 activity (14C-bicarbonate incorporation); type: biochemical; conditions: ACC1 from rat liver
In plain terms, pIC50 is the concentration in mol/L turned into minus its base-10 logarithm.

| compound | pIC50 |
| --- | --- |
| Cc1cc2c(cc1C)C(=O)CC1(CCN(C(=O)c3ccc4c(cnn4C)c3)CC1)O2 [Ex. D1] | 7.24 |
| Cc1cc(C(=O)N2CCC3(CC2)CC(=O)c2cc(F)c(Cl)cc2O3)cc2cn[nH]c12 | 6.98 |
| O=C1CC2(CCN(C(=O)c3cc(Cl)c4[nH]ncc4c3)CC2)Oc2cc(Cl)c(F)cc21 | 6.68 |

Proceeding to the next compound to report its pIC50.
Request: What value of pIC50 has been reported for the following compound? "COC(=O)c1ccc2c(c1)C(=O)CC1(CCN(C(=O)c3cc(C)c4[nH]ncc4c3)CC1)O2"
Result: 7.40

----------
# IC50 per entry
Molecular target: ACC1 from rat liver (Rattus norvegicus, UniProt P11497)
Construct: The livers (for ACC1 preparation) or skeletal muscle tissue (for ACC2 preparation) are removed; from tissue; host or cells: liver of male CD rats (fasted, then fed a high sucrose diet)
Experiment: Direct inhibition of ACC1 activity (14C-bicarbonate incorporation)
Format: biochemical
Settings: ACC1 from rat liver
Protocol: [1] Preparation of ACC1 and ACC2. Male CD rats weighing 150-200 g are fasted for 2 days and then fed a high sucrose diet (AIN-76A rodent diet; Cat # D10001, Research Diets Inc., New Brunswick, N.J.), for 3 days at which time they are sacrificed by CO2 asphyxiation. […] [2] […] The dried vials are then cooled, 0.5 ml of water and 5.5 ml of Ready Safe liquid scintillation fluid (Beckman Coulter Inc., Fullerton, Calif.) are added, and the radioactivity is determined using a liquid scintillation counter. […]
Where a name gives a salt, the structure may show the parent alone.
Dear colleague, please return just the value in nM, with no unit written.

# example entries with known answers
| compound | endpoint unit | IC50 |
| --- | --- | --- |
| COc1cc(C)c2c(c1)OC1(CCN(C(=O)c3cc(C)c4[nH]ncc4c3)CC1)CC2=O | nM | 138 |
| Cc1cc2c(cc1C)C(=O)CC1(CCN(C(=O)c3ccc4ncccc4c3)CC1)O2 [Ex. L43, trifluoroacetic acid salt] | nM | 121 |
| CCOc1ccc2c(c1)C(=O)CC1(CCN(C(=O)c3cc(C)c4[nH]ncc4c3)CC1)O2 | nM | 19.5 |
| O=C1CC2(CCN(C(=O)c3cc(Cl)c4[nH]ncc4c3)CC2)Oc2ccc(C(F)(F)F)cc21 | nM | 257 |
| Cc1cc(C(=O)N2CCC3(CC2)CC(=O)c2cc(Cl)ccc2O3)cc2cn[nH]c12 | nM | 113 |

Request: What value of IC50 has been reported for the following compound? "COc1cccc2c1C(=O)CC1(CCN(C(=O)c3ccc4c(Cl)c[nH]c4c3)CC1)O2"
Result: 47.3

Request: Same read-out for "COc1cccc2c1C(=O)CC1(CCN(C(=O)c3cc(Cl)c4[nH]ncc4c3)CC1)O2" ?
Result: 109

Request: Same read-out for Cc1cc2c(cc1C)C(=O)CC1(CCN(C(=O)c3ccc4c(c3)ncn4C)CC1)O2 [Ex. L23, trifluoroacetic acid salt] ?
Result: 1170

Request: Same read-out for Cc1cc2c(cc1C)C(=O)CC1(CCN(C(=O)c3cccc4c3ncn4C(C)C)CC1)O2 [Ex. L21, trifluoroacetic acid salt] ?
Result: 670
